B1: HDV Ribozyme (parent)
chain: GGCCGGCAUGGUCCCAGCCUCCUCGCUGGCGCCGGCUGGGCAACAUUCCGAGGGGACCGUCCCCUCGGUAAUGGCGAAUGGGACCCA

- Variants of: B1
- EXPERIMENT SUMMARY: self-cleavage, relative activity (ratio to wild type); higher = more cleavage; co-transcriptional
Param threshold (0.5) applies to self-cleavage; output Fulfilled when value >= threshold, Not fulfilled when value < threshold.

Example cases with answers are listed next.
C41A G82U : Not fulfilled
A42C A56G : Not fulfilled
U20G A71U : Not fulfilled
C26A U37A : Not fulfilled
G40C C85G : Not fulfilled

Prompt: Check this variant for self-cleavage at or above 0.5: C4U A8G
Response: Fulfilled

Prompt: Check this variant for self-cleavage at or above 0.5: G52U C57A
Response: Fulfilled

Prompt: Check this variant for self-cleavage at or above 0.5: G35U A78U
Response: Not fulfilled

Prompt: Check this variant for self-cleavage at or above 0.5: C13G C36A
Response: Not fulfilled

Prompt: Check this variant for self-cleavage at or above 0.5: C3G A8U
Response: Not fulfilled

Prompt: Check this variant for self-cleavage at or above 0.5: U60C A87G
Response: Fulfilled

Prompt: Check this variant for self-cleavage at or above 0.5: U69G A87G
Response: Fulfilled

Prompt: Check this variant for self-cleavage at or above 0.5: A8U C14G
Response: Not fulfilled

Prompt: Check this variant for self-cleavage at or above 0.5: C14G U65C
Response: Fulfilled
